target: α1B (rat spleen) (Rattus norvegicus, UniProt P15823); construct: α1B (rat spleen) and α1D (rat aorta) receptors; from tissue; host or cells: rat spleen; experiment: Agonist contraction of smooth muscle tissue, rat spleen; type: cell-based; details: rat spleen; read-out: Agonist Tissue Response (pD2) α1B (rat spleen) (converted)
Sequence (P15823 whole entry): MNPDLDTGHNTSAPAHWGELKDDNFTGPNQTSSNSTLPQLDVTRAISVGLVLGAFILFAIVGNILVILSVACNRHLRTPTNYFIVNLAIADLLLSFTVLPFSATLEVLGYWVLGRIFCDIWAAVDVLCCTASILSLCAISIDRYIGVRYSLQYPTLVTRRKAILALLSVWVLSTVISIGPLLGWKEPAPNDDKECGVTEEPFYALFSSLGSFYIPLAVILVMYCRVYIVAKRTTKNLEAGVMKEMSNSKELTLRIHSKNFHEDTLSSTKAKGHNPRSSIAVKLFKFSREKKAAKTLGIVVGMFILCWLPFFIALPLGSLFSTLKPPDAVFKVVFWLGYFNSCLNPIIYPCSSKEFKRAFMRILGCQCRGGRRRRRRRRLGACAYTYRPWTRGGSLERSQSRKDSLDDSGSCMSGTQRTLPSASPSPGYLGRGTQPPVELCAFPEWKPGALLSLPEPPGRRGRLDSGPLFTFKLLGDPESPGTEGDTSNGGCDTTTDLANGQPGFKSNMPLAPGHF
Structures can show the parent of a compound that is named as a salt.

compound	target.desc	EC50
Cc1ccc(NS(C)(=O)=O)c2c1C(c1c[nH]cn1)CCC2 (stereo not shown) [Example 23, maleate]	α1B (rat spleen) (Rattus norvegicus, UniProt P15823)	> 1000 µM
O=S(=O)(CC(F)(F)F)Nc1cccc2c1CCCC2c1c[nH]cn1 (single isomer, unassigned; (-))	α1B (rat spleen) (Rattus norvegicus, UniProt P15823)	> 1000 µM
CCS(=O)(=O)Nc1cccc2c1CCCC2c1c[nH]cn1.O=C(O)/C=C\C(=O)O (stereo not shown) [Example 12, maleate]	α1B (rat spleen) (Rattus norvegicus, UniProt P15823)	> 1000 µM
CCS(=O)(=O)Nc1cccc2c1CCCC2c1c[nH]cn1.O=C(O)/C=C\C(=O)O (single isomer, unassigned; (-)) [Example 34, maleate]	α1B (rat spleen) (Rattus norvegicus, UniProt P15823)	> 1000 µM
CS(=O)(=O)Nc1cccc(Cc2c[nH]cn2)c1.O=C(O)/C=C\C(=O)O [Example 21, maleate]	α1B (rat spleen) (Rattus norvegicus, UniProt P15823)	> 1000 µM
CS(=O)(=O)Nc1cc(Cc2c[nH]cn2)ccc1O [Example 11, hydrochloride]	α1B (rat spleen) (Rattus norvegicus, UniProt P15823)	1.2 µM
CCS(=O)(=O)Nc1cccc(Cc2c[nH]cn2)c1.O=C(O)/C=C\C(=O)O [Example 30, maleate]	α1B (rat spleen) (Rattus norvegicus, UniProt P15823)	0.692 µM
CCS(=O)(=O)Nc1cccc(Cc2c[nH]cn2)c1C.O=C(O)/C=C\C(=O)O [Example 29, maleate]	α1B (rat spleen) (Rattus norvegicus, UniProt P15823)	> 1000 µM
CCS(=O)(=O)Nc1cccc2c1CCCC2c1c[nH]cn1.O=C(O)/C=C\C(=O)O (single isomer, unassigned; (+)) [Example 33, maleate]	α1B (rat spleen) (Rattus norvegicus, UniProt P15823)	3.8 µM
CS(=O)(=O)Nc1ccc(Cl)c2c1CCCC2c1c[nH]cn1 (stereo not shown) [Example 43, maleate]	α1B (rat spleen) (Rattus norvegicus, UniProt P15823)	> 1000 µM
Cc1nc(C2CCCc3c2ccc(O)c3NS(C)(=O)=O)c[nH]1 (stereo not shown) [Example 3, hydrochloride]	α1B (rat spleen) (Rattus norvegicus, UniProt P15823)	12.9 µM
Cc1c(Cc2c[nH]cn2)cccc1NS(C)(=O)=O.O=C(O)/C=C\C(=O)O [Example 28, maleate]	α1B (rat spleen) (Rattus norvegicus, UniProt P15823)	7.76 µM
Cl.Cn1cnc(C2CCCc3c(NS(C)(=O)=O)cccc32)c1 (stereo not shown) [Example 14, hydrochloride]	α1B (rat spleen) (Rattus norvegicus, UniProt P15823)	> 1000 µM
C=C(c1cccc(NS(=O)(=O)CC)c1)c1c[nH]cn1	α1B (rat spleen) (Rattus norvegicus, UniProt P15823)	> 1000 µM
CS(=O)(=O)Nc1ccc(O)c2c1CCCC2c1c[nH]cn1 (stereo not shown) [Example 24, maleate]	α1B (rat spleen) (Rattus norvegicus, UniProt P15823)	> 1000 µM
CS(=O)(=O)Nc1ccc(F)c2c1CCCC2c1c[nH]cn1.O=C(O)/C=C\C(=O)O (stereo not shown) [Example 44, maleate]	α1B (rat spleen) (Rattus norvegicus, UniProt P15823)	> 1000 µM
